# System Tested: β-secretase (BACE) (Homo sapiens, UniProt P56817)
# Construct: purchased Panvera
# Sequence (P56817 46-501): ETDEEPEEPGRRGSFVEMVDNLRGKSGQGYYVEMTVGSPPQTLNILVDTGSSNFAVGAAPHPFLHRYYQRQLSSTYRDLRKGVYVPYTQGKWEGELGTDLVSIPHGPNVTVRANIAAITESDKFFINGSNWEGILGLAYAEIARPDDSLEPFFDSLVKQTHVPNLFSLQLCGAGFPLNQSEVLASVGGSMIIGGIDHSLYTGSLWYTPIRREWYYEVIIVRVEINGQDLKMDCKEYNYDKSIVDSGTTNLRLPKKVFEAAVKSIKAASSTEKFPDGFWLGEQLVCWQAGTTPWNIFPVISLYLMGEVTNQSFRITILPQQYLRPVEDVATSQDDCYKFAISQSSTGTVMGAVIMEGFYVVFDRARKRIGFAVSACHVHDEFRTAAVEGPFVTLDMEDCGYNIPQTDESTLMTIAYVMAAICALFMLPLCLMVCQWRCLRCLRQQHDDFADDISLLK
# Protocol: BACE FS1 % Inhibition Assay
# Type: biochemical
# Stated Conditions: 3 μM test compound
Kindly state % Inhibition (FS) for each of the entries shown.

// below: answered compounds
NC(=O)c1ccccc1-c1ccc2c(c1)CN(CCNC(=O)C1CCCCC1)C(N)=N2 [Compound 543] ... <30%
NC1=Nc2ccc(-c3cncnc3)cc2CN1CCNC(=O)C1CCCCC1 [Compound 575] ... <30%

With those in mind, consider the next compound.
State its % Inhibition (FS) on β-secretase (BACE) (Homo sapiens, UniProt P56817): CN1CCC(N(C)C(=O)c2cccc(CN3Cc4cc(Oc5ccccc5)ccc4N=C3N)c2)CC1 [Compound 223]
<30%

---

# System Tested: β-secretase (BACE) (Homo sapiens, UniProt P56817)
# Construct: purchased Panvera
# Protocol: BACE FS1 % Inhibition Assay
# Type: biochemical
# Stated Conditions: 3 μM test compound
Assign % Inhibition (FS) to each entry below.

Some entries whose results are on file:
NC1=Nc2ccc(Oc3ccccc3)cc2CN1C(CNC(=O)C1CCCCC1)Cc1ccc(O)cc1 (centres unmarked) ... <30%
CN(C(=O)c1cccc(CN2Cc3cc(-c4cn[nH]c4)ccc3N=C2N)c1)C1CCCCC1 ... <30%
CC(C)(C)c1ccc(C(=O)NCCN2Cc3cc(Oc4ccccc4)ccc3N=C2N)cc1 ... <30%
CCCC(CCCC(=O)N(CC)C1CCCCC1)N1Cc2cc(Oc3ccccc3)ccc2N=C1N (centres unmarked) ... <30%

What value of % Inhibition (FS) has been reported for the following molecule? CCCCC(CC)CN(CC(CC)CCCC)C(=O)c1cccc(CN2Cc3cc(Oc4ccccc4)ccc3N=C2N)c1 (centres unmarked)
<30%

---

# System Tested: β-secretase (BACE) (Homo sapiens, UniProt P56817)
# Construct: purchased Panvera
# Protocol: BACE % Inhibition Assay ((Aedens)-[…]-(Dabcyl K-amide) substrate)
# Assay type: biochemical
# Stated Conditions: 3 μM compound; % error ±10%
Measured Attribute: % Inhibition

Reference set, count: 5
CN(C(=O)c1ccc(CN2Cc3cc(Oc4ccccc4)ccc3N=C2N)cc1)C1CCCCC1 [Compound 97] ... <30%
CCCCC(CC)C(=O)NCc1cccc(CN2Cc3cc(Oc4ccccc4)ccc3N=C2N)c1 (stereo not drawn) [Compound 339] ... <30%
CN(C(=O)[C@@H]1CCCN1C(=O)CN1Cc2cc(Oc3ccccc3)ccc2N=C1N)C1CCCCC1 [Compound 88] ... <30%
NC1=Nc2ccc(Oc3ccccc3)cc2CN1C(CNC(=O)C1CCCCC1)c1ccccc1 (stereo not drawn) [Compound 342] ... 119%
NC1=Nc2ccc(Oc3ccccc3)cc2CN1C(CNC(=O)CCC1CCCC1)C1CCCCC1 (stereo not drawn) [Compound 366] ... 119%

Below: the item to evaluate.
Please give the measured % Inhibition for this molecule: NC1=Nc2ccc(Oc3ccccc3)cc2CN1C(CCNC(=O)C1CCCC1)C1CCCCC1 (stereo not drawn) [Compound 392]
120%

---

# System Tested: β-secretase (BACE) (Homo sapiens, UniProt P56817)
# Construct: purchased Panvera
# Protocol: BACE FS1 % Inhibition Assay
# Format: biochemical
# Stated Conditions: 3 μM test compound
# Protocol: The following reagents were used in this assay: sodium acetate, PEG8000 (Sigma), DMSO, HEPES, FS1 substrate [[…]] […] The FS1-substrate stock solution was prepared in DMSO as a 10 mg/mL solution. The FS1-substrate working solution was prepared by diluting the 10 mg/mL stock solution with substrate assay buffer to a final concentration of 300 μg/mL. […] For test compounds, % inhibition was determined at each concentration as follows: [formula]
Provide the reported % Inhibition (FS) of each item.

CN(C(=O)c1cccc(CN2Cc3cc(-c4ccccc4-c4ccccc4)ccc3N=C2N)c1)C1CCCCC1 ... <30%

Each compound below has a reported value. Please supply its % Inhibition (FS).
1. COc1cccc(COc2ccc3c(c2)CN(Cc2cccc(C(=O)N(C)C4CCCCC4)c2)C(N)=N3)c1
2. CCCC=Cc1ccc2c(c1)CN(CCNC(=O)c1cc(C)oc1C)C(N)=N2
3. CC(C)CCC(=O)NCC(Cc1ccc(O)cc1)N1Cc2cc(Oc3ccccc3)ccc2N=C1N (stereo not shown)

1: <30%; 2: <30%; 3: <30%

---

# System Tested: β-secretase (BACE) (Homo sapiens, UniProt P56817)
# Construct: purchased Panvera
# Protocol: BACE FS1 % Inhibition Assay
# Assay type: biochemical
# Stated Conditions: 0.3 μM test compound; read-out: % Inhibition (FS)
Measured Attribute: inhibition at 0.3 µM

Here's what some known entries look like.
NC1=Nc2ccc(Oc3ccccc3)cc2CN1[C@H](CNC(=O)C1CCCCC1)C1CCCCC1 ... < 30%
CN(C(=O)c1cccc(CN2Cc3cc(-c4ccccc4Oc4ccccc4)ccc3N=C2N)c1)C1CCCCC1 ... < 30%

Please look at the following molecule next.
// lookup inhibition at 0.3 µM | system=β-secretase (BACE) (Homo sapiens, UniProt P56817) | key= "CSc1ccccc1-c1ccc2c(c1)CN(Cc1cccc(C(=O)N(C)C3CCCCC3)c1)C(N)=N2"
< 30%

---

# System Tested: β-secretase (BACE) (Homo sapiens)
# Construct: purchased Panvera
# Protocol: BACE FS1 % Inhibition Assay
# Assay type: biochemical
# Stated Conditions: 3 μM test compound
# Protocol: The following reagents were used in this assay: sodium acetate, PEG8000 (Sigma), DMSO, HEPES, FS1 substrate [[…]] […] The FS1-substrate stock solution was prepared in DMSO as a 10 mg/mL solution. The FS1-substrate working solution was prepared by diluting the 10 mg/mL stock solution with substrate assay buffer to a final concentration of 300 μg/mL. […] For test compounds, % inhibition was determined at each concentration as follows: [formula]
Measured Attribute: % Inhibition (FS)

Below, 2 molecules whose answers are already recorded.
NC1=Nc2ccc(Oc3ccccc3)cc2CN1CCCNC(=O)C1CC1 [Compound 143] ... <30%
COc1ccc(-c2nc3ccccc3s2)c(Oc2ccc3c(c2)CN(Cc2cccc(C(=O)N(C)C4CCCCC4)c2)C(N)=N3)c1 [Compound 469] ... <30%

Consider now this further molecule.
Which value of % Inhibition (FS) has been reported for CCCCCCCCCC(=O)NCCN1Cc2cc(Oc3ccccc3)ccc2N=C1N [Compound 142] in the records?
<30%

---

Field: % Inhibition (FS). Provide a value for each of the molecules that follow.
# System Tested: β-secretase (BACE) (Homo sapiens, UniProt P56817)
# Construct: purchased Panvera
# Protocol: BACE FS1 % Inhibition Assay
# Type: biochemical
# Stated Conditions: 1 μM test compound

CC(C)[C@@H](CCC(=O)N(C)C1CCCCC1)N1Cc2cc(Oc3ccccc3)ccc2N=C1N ... <30%
COc1ccccc1-c1cc2c(cc1F)CN(CCC(=O)NC1C3CC4CC(C3)CC1C4)C(N)=N2 (stereo not shown) ... <30%
CN(C)c1cccc(Oc2ccc3c(c2)CN(Cc2cccc(C(=O)N(C)C4CCCCC4)c2)C(N)=N3)c1 ... <30%

# % Inhibition (FS) lookup, item CC1CCN(C(=O)CCCC(CCC(=O)N2CCC(C)CC2)N2Cc3cc(Oc4ccccc4)ccc3N=C2N)CC1 (stereo not shown)
<30%

---

# System Tested: β-secretase (BACE) (Homo sapiens, UniProt P56817)
# Construct: purchased Panvera
# Protocol: BACE FS1 % Inhibition Assay
# Format: biochemical
# Stated Conditions: 1 μM test compound
Measured Attribute: % Inhibition (FS) (%)
Answers are plain numbers, in %.

CC(C)CCC(=O)NC[C@@H](C(C)C)N1Cc2cc(Oc3ccccc3)ccc2N=C1N [Compound 564] ... 119

Kindly state the measured % Inhibition (FS) obtained for NC1=Nc2ccc(Oc3ccccc3)cc2CN1CCNCC1CCCCC1 [Compound 427] with β-secretase (BACE) (Homo sapiens, UniProt P56817).
26

---

For each entry below, report its % Inhibition value.
# System Tested: β-secretase (BACE) (Homo sapiens, UniProt P56817)
# Construct: purchased Panvera
# Protocol: BACE % Inhibition Assay ((Aedens)-[…]-(Dabcyl K-amide) substrate)
# Type: biochemical
# Stated Conditions: 1 μM compound; % error ±10%

CCCCC(CC)C(=O)NCc1cccc(CN2Cc3cc(Oc4ccccc4)ccc3N=C2N)c1 (stereo not drawn) ... <30%
NC1=Nc2ccc(Oc3ccccc3)cc2CN1Cc1cccc(CNC(=O)C(c2ccccc2)c2ccccc2)c1 ... <30%

For the next question, use this compound.
Could you tell me which % Inhibition is on file for CCCCC(CC)C(=O)NCC(c1ccccc1)N1Cc2cc(Oc3ccccc3)ccc2N=C1N (stereo not drawn) ?
<30%

---

Hi there, I'd appreciate the recorded % Inhibition (FS) for every entry that follows.
# System Tested: β-secretase (BACE) (Homo sapiens, UniProt P56817)
# Construct: purchased Panvera
# Protocol: BACE FS1 % Inhibition Assay
# Format: biochemical
# Stated Conditions: 0.3 μM test compound
Give bare numbers, in %.

Batch lookup, % Inhibition (FS) per entry.
1. CCc1ccccc1-c1ccc2c(c1)CN(Cc1cccc(C(=O)N(C)C3CCCCC3)c1)C(N)=N2
2. NC1=Nc2ccc(Oc3ccccc3)cc2CN1C(CNC(=O)C12CC3CC(CC(C3)C1)C2)C1CCCCC1 (stereo not shown)

−31
74
